// provenance: paper PMC2191316

Tested Target: DRB5*0101 molecules (Homo sapiens, UniProt P01903+Q30154)
Experiment Notes: Inhibition of radiolabeled TT
Residues, ends and D or L forms follow the SMILES beside them.
Listed next: entries and their corresponding log10 of IC50.
The base-10 logarithm of IC50, taken with IC50 in nM, is what appears here.

Recorded log10 of IC50, per entry:
{"Compound": "CC[C@H](C)[C@H](NC(=O)[C@H](CC(N)=O)NC(=O)[C@H](CCCCN)NC(=O)[C@H](Cc1ccccc1)NC(=O)[C@H](Cc1ccccc1)NC(=O)[C@H](Cc1c[nH]cn1)NC(=O)[C@@H](NC(=O)[C@@H](NC(=O)[C@H](C)NC(=O)[C@H](CC(N)=O)NC(=O)[C@@H](N)CCC(=O)O)C(C)C)C(C)C)C(=O)N[C@H](C(=O)N[C@H](C(=O)N1CCC[C@H]1C(=O)N[C@@H](CCCNC(=N)N)C(=O)O)[C@@H](C)O)C(C)C [(85-99)87A] (H-ENAVVHFFKNIVTPR-OH)", "Assay Result": 2.79}
{"Compound": "CC[C@H](C)[C@H](NC(=O)[C@H](CC(N)=O)NC(=O)[C@H](CCCCN)NC(=O)[C@H](Cc1ccccc1)NC(=O)[C@H](Cc1ccccc1)NC(=O)[C@H](Cc1c[nH]cn1)NC(=O)[C@@H](NC(=O)[C@@H](NC(=O)[C@@H]1CCCN1C(=O)[C@H](CC(N)=O)NC(=O)[C@H](CCC(=O)O)NC(=O)[C@@H](N)CC(=O)O)C(C)C)C(C)C)C(=O)N[C@H](C(=O)N[C@H](C(=O)N1CCC[C@H]1C(=O)N[C@@H](CCCNC(=N)N)C(=O)N[C@H](C(=O)N1CCC[C@H]1C(=O)N1CCC[C@H]1C(=O)O)[C@@H](C)O)[C@@H](C)O)C(C)C", "Assay Result": 1.74}
{"Compound": "CC[C@H](C)[C@H](NC(=O)[C@H](CC(N)=O)NC(=O)[C@H](CCCCN)NC(=O)[C@H](Cc1ccccc1)NC(=O)[C@H](Cc1ccccc1)NC(=O)[C@H](Cc1c[nH]cn1)NC(=O)[C@H](C)NC(=O)[C@@H](NC(=O)[C@@H]1CCCN1C(=O)[C@H](CC(N)=O)NC(=O)[C@@H](N)CCC(=O)O)C(C)C)C(=O)N[C@H](C(=O)N[C@H](C(=O)N1CCC[C@H]1C(=O)N[C@@H](CCCNC(=N)N)C(=O)O)[C@@H](C)O)C(C)C [(85-99)89A] (H-ENPVAHFFKNIVTPR-OH)", "Assay Result": 2.84}

The reported value for CC[C@H](C)[C@H](NC(=O)[C@H](CC(N)=O)NC(=O)[C@H](CCCCN)NC(=O)[C@H](Cc1ccccc1)NC(=O)[C@H](Cc1ccccc1)NC(=O)[C@H](Cc1c[nH]cn1)NC(=O)[C@@H](NC(=O)[C@@H](NC(=O)[C@@H]1CCCN1C(=O)[C@H](CC(N)=O)NC(=O)[C@H](C)N)C(C)C)C(C)C)C(=O)N[C@H](C(=O)N[C@H](C(=O)N1CCC[C@H]1C(=O)N[C@@H](CCCNC(=N)N)C(=O)O)[C@@H](C)O)C(C)C [(85-99)85A] (H-ANPVVHFFKNIVTPR-OH) in terms of log10 of IC50 is 2.62

The reported value for CC[C@H](C)[C@H](NC(=O)[C@H](C)NC(=O)[C@H](CCCCN)NC(=O)[C@H](Cc1ccccc1)NC(=O)[C@H](Cc1ccccc1)NC(=O)[C@H](Cc1c[nH]cn1)NC(=O)[C@@H](NC(=O)[C@@H](NC(=O)[C@@H]1CCCN1C(=O)[C@H](CC(N)=O)NC(=O)[C@@H](N)CCC(=O)O)C(C)C)C(C)C)C(=O)N[C@H](C(=O)N[C@H](C(=O)N1CCC[C@H]1C(=O)N[C@@H](CCCNC(=N)N)C(=O)O)[C@@H](C)O)C(C)C [(85-99)94A] (H-ENPVVHFFKAIVTPR-OH) in terms of log10 of IC50 is 2.15
